- testedOn: T1, HLA-A*01:01 (human)
- T1 construct: Peptide-receptive MHC class I monomer: a UV-sensitive peptide (not specified) is cleaved and exchanged with the test peptide
- experimentalProtocol: UV peptide exchange, anti-b2m ELISA; exchange yield grade
observationType: peptide exchange yield

In: May I ask what peptide exchange yield has been recorded for ASSPVILLL ?
Out: 20 to 50%

In: May I ask what peptide exchange yield has been recorded for FSEIFQDFL ?
Out: 50 to 75%

In: May I ask what peptide exchange yield has been recorded for ETNTIEFIY ?
Out: ≥ 75%

In: May I ask what peptide exchange yield has been recorded for TVDKGELLY ?
Out: ≥ 75%
